TESTED_ON: Lactoylglutathione lyase (Homo sapiens)
Sequence (Q04760 whole entry): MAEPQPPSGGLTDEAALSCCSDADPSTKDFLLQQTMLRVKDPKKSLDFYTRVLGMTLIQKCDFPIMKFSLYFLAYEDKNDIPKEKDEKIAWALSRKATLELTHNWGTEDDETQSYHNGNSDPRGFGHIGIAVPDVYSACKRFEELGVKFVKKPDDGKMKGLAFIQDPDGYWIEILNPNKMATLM
ASSAY_EXPLANATION: Inhibition of human recombinant His-tagged glyoxalase 1 expressed in Escherichia coli BL21 (DE3) preincubated for 20 mins by Dixon plot analysis
PARAMETER_MEASURED: Ki (µM)

Here are 4 compounds together with their reported answers.
[[record]]
compound = "CC(C(=O)O)c1cccc(Oc2ccccc2)c1 (stereo not given)"
quantitative_result = 383

[[record]]
compound = "O=C(/C=C/c1ccc(O)cc1)CC(=O)/C=C/c1ccc(O)cc1"
quantitative_result = 18

[[record]]
compound = "CCOC(=O)/C(=C\\C=C(\\C(C)=O)C(=O)OCC)C(C)=O"
quantitative_result = 39

[[record]]
compound = "COc1ccc(/C=C/C(=O)C(=CO)C(=O)/C=C/c2ccc(OC)cc2)cc1"
quantitative_result = 109


I = NC(=O)/C=C/c1ccc(F)cc1
II = COc1ccc(/C=C/C(=O)C(=Cc2ccc(C=O)c(C=O)c2)C(=O)/C=C/c2ccc(OC)c(OC)c2)cc1OC
Identify the entry with the smaller Ki: I or II . Kindly state the label of the option you pick. II

1 = COc1ccc2c(c1)c(CC(=O)OCC(=O)O)c(C)n2C(=O)c1ccc(Cl)cc1
2 = COc1cc(/C=C/C(O)=C/C(=O)/C=C/c2ccc[nH]2)ccc1O
3 = COC(=O)/C=C/c1ccc(F)cc1
Ranking field: Ki; order: falling. Use the labels to give the requested order. 3, 1, 2
